# MEASURED_ON: insulin receptor subtype B (human), P06213
# EXPERIMENT_DESCRIPTION: cell-based or functional assay
Bridges are numbered along the chain shown (N, C = ends). Where no end group is shown, it is not given here.
MEASUREMENT_NAME: % Insulin Activity (in vitro; assay not stated) (%)
Just the number in %, nothing appended.

{"columns": ["BINDER", "READOUT_UNIT", "VAL"],
 "data": [
  ["MIU-69: B0, A14-PEG10K di-PEGylated B^1(H5,Y16,L17)25-C^1(K8)-A^1(K14, N18,21) (ligand, disulfide 18-56, 42-47, 6-43) {PEG 10 kDa}-GPEHLCGAELVDALYLVCGDRGFYGYGSSSRKAPQTGIVDECCFRSCDLK(PEG 10 kDa)RLENYCN", "%", 0.5],
  ["MIU-68: B0, B22-PEG10K di-PEGylated B^1(H5,Y16,L17, K22)25-C^1(K8)-A^1(N18,21) (ligand, disulfide 18-56, 42-47, 6-43) {PEG 10 kDa}-GPEHLCGAELVDALYLVCGDK(PEG 10 kDa)GFYGYGSSSRKAPQTGIVDECCFRSCDLRRLENYCN", "%", 0.1],
  ["MIU-67: B0, C8-PEG10K di-PEGylated B^1(H5,Y16,L17)25-C^1(K8)-A^1(N18,21) (ligand, disulfide 18-56, 42-47, 6-43) {PEG 10 kDa}-GPEHLCGAELVDALYLVCGDRGFYGYGSSSRK(PEG 10 kDa)APQTGIVDECCFRSCDLRRLENYCN", "%", 0.1]
]}

Find the recorded % Insulin Activity (in vitro; assay not stated) belonging to MIU-35: B^1(H5, H10, Y16, L17)25-C^1-A^1 (H8, N18, N21) (ligand) GPEHLCGAHLVDALYLVCGDRGFYGYGSSSRRAPQTGIVDECCHRSCDLRRLENYCN and report it.
17.4

Find the recorded % Insulin Activity (in vitro; assay not stated) belonging to MIU-58: B1-PEG20K-B1- Dimer, P05019 49-110 (ligand, disulfide 18-56, 42-47, 6-43; also: dimer: two chains linked head to head via 20 kDa PEG) {PEG 20 kDa}-GPEHLCGAELVDALYLVCGDRGFYGYGSSSRRAPQTGIVDECCFRSCDLRRLENYCN and report it.
5.8

Find the recorded % Insulin Activity (in vitro; assay not stated) belonging to MIU-57: B1-PEG20K B^1(H5,Y16,L17)25-C^1-A^1(N18,21), P05019 49-110 (ligand, disulfide 18-56, 42-47, 6-43) {PEG 20 kDa}-GPEHLCGAELVDALYLVCGDRGFYGYGSSSRRAPQTGIVDECCFRSCDLRRLENYCN and report it.
1.1
